Molecular target: FGFR1 (Homo sapiens, UniProt P11362)
Sequence (P11362 22-822): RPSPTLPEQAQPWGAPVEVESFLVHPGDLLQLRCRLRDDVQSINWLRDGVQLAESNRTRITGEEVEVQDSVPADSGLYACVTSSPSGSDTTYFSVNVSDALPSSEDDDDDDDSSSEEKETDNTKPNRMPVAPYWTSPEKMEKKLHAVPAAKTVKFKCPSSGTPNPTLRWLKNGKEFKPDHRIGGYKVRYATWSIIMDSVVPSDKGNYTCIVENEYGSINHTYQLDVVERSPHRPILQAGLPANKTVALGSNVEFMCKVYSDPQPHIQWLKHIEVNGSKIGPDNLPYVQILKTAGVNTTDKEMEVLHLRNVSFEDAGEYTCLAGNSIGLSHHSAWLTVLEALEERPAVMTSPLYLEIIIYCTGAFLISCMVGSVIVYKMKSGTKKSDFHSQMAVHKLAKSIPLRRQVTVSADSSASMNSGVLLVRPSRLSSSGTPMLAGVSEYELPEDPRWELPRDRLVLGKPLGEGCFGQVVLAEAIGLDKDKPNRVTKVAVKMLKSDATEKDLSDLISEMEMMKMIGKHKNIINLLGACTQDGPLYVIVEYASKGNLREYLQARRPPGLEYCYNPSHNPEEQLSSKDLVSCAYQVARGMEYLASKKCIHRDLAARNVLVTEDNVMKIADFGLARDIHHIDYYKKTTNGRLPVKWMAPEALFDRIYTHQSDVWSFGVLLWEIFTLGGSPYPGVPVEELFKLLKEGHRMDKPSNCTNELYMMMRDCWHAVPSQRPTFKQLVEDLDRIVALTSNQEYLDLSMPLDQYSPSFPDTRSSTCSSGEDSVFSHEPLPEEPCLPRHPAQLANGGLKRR
Parameter Measured: IC50

O=C(O)[C@H]1C2CCC(CC2)[C@@H]1Nc1nc(-c2n[nH]c3ncc(F)cc23)nc(C2CC2)c1F :: > 10 µM
O=C(O)[C@H]1C2CCC(CC2)[C@@H]1Nc1nc(-c2c[nH]c3ncc(F)cc23)ncc1F [VX-787, reference compound] :: > 10 µM
